From: paper PMC11741150

Tested on: Vero cells
Test: Cytotoxicity resazurin assay
Assay type: cell-based
Details: Chlorocebus sabaeus, 48 hours, ±standard deviation, maximum concentration 2 mM
Define the label as rule met when IC50 is strictly less than 500 µM and as rule not met in all remaining cases.

{"columns": ["compound", "assigned category"],
 "data": [
  ["O=S1(=O)NC=Nc2ccccc21 [Compound 1]", "rule met"],
  ["O=[N+]([O-])c1ccc(OCCN2C=Nc3ccccc3S2(=O)=O)cc1 [Compound 12]", "rule not met"],
  ["CC[C@H]1CN2CCc3cc(OC)c(OC)cc3[C@@H]2C[C@@H]1C[C@H]1NCCc2cc(OC)c(OC)cc21 [Em, emetine, reference compound]", "rule met"],
  ["O=S1(=O)c2ccccc2N=CN1CCOc1ccc(Br)cc1 [Compound 10]", "rule not met"],
  ["CCOCCOCCOCCN1C=Nc2ccccc2S1(=O)=O [Compound 8]", "rule not met"],
  ["C=CCOCCN1C=Nc2ccccc2S1(=O)=O [Compound 13]", "rule not met"],
  ["C[C@@H]1[C@H](O)[C@@H](C)/C=C/C=C/C=C/C=C/C=C/C=C/C=C/[C@H](O[C@@H]2O[C@H](C)[C@@H](O)[C@H](N)[C@@H]2O)C[C@@H]2O[C@](O)(C[C@@H](O)C[C@@H](O)[C@H](O)CC[C@@H](O)C[C@@H](O)CC(=O)O[C@H]1C)C[C@H](O)[C@H]2C(=O)O [AmB, Amphotericin B, reference compound]", "rule met"]
]}

====

Test system: L. major (strain NIH S (MHOM/SN/74/Seidman)) promastigotes
Assay: Antipromastigote resazurin assay
Assay type: cell-based, Leishmania major
Measured SI2: Selectivity index=IC50 Vero/L. major antipromastigote IC50 values are reported for all entries that follow.
measured attribute: SI2: Selectivity index=IC50 Vero/L. major antipromastigote IC50

{"columns": ["molecule", "recorded value"],
 "data": [
  ["COCCOCCOCCN1C=Nc2ccccc2S1(=O)=O [Compound 5]", 0.89],
  ["C=CCOCCN1C=Nc2ccccc2S1(=O)=O [Compound 13]", 1.17],
  ["O=S1(=O)NC=Nc2ccccc21 [Compound 1]", 0.38],
  ["C#CCN1C=Nc2ccccc2S1(=O)=O [Compound 14]", 2.89],
  ["O=S1(=O)c2ccccc2N=CN1CCOc1ccc(Br)cc1 [Compound 10]", 0.47]
]}

====

Tested on: L. major intramacrophage amastigotes
Assay: Intramacrophage antileishmanial growth inhibition assay
Assay type: cell-based, Leishmania major
Details: Leishmania major; L. major strain IR‐173 (as headed) intramacrophage amastigotes, 10 μM; read-out: Anti‐amastigote growth inhibition (%)
measured attribute: inhibition at 10 µM

{"columns": ["item smiles", "recorded value"],
 "data": [
  ["C=CCOCCN1C=Nc2ccccc2S1(=O)=O", "0%"],
  ["COCCOCCOCCN1C=Nc2ccccc2S1(=O)=O", "0%"],
  ["O=S1(=O)c2ccccc2N=CN1CCOc1ccc(Br)cc1", "0%"],
  ["O=S1(=O)c2ccccc2N=CN1CCO", "0%"],
  ["C#CCN1C=Nc2ccccc2S1(=O)=O", "0%"],
  ["O=S1(=O)c2ccccc2N=CN1CCOc1ccc(Cl)cc1", "0%"],
  ["O=[N+]([O-])c1ccc(OCCN2C=Nc3ccccc3S2(=O)=O)cc1", "0%"]
]}

====

Test system: Leishmania donovani (strain 9515 (MHOM/IN/95/9515)) promastigotes
Test: Antipromastigote resazurin assay
Format: cell-based
Protocol: The antipromastigote activity of synthesised compounds was evaluated using a modified method of the resazurin assay[45, 46] against two Leishmania strains. […] Following the initial incubation, 50 μL of resazurin solution (0.01 % in PBS) was added to each well and the plates underwent further incubation at 26 °C for 24 hours in the dark. A Thermofisher Scientific's GO Multiscan plate reader was used to measure absorbance at 570 nm and 600 nm. […]
Measured SI1: Selectivity index=IC50 Vero/L. donovani 9515 antipromastigote IC50 values are reported for all entries that follow.
measured attribute: SI1: Selectivity index=IC50 Vero/L. donovani 9515 antipromastigote IC50

{"columns": ["compound", "recorded value"],
 "data": [
  ["C#CCN1C=Nc2ccccc2S1(=O)=O [Compound 14]", 2.25],
  ["CCOCCOCCN1C=Nc2ccccc2S1(=O)=O [Compound 7]", 1.71],
  ["O=[N+]([O-])c1ccc(OCCN2C=Nc3ccccc3S2(=O)=O)cc1 [Compound 12]", 1.62],
  ["O=S1(=O)c2ccccc2N=CN1CCOc1ccc(Br)cc1 [Compound 10]", 0.73],
  ["O=S1(=O)c2ccccc2N=CN1CCOc1ccc(Cl)cc1 [Compound 11]", 2.57],
  ["O=S1(=O)c2ccccc2N=CN1CCO [Compound 2]", 0.90],
  ["O=S1(=O)NC=Nc2ccccc21 [Compound 1]", 0.53],
  ["O=S1(=O)c2ccccc2N=CN1CCOc1ccccc1 [Compound 9]", 6.36],
  ["COCCOCCOCCN1C=Nc2ccccc2S1(=O)=O [Compound 5]", 1.20]
]}
